- MEASURED TARGET: T1, hVISTA-Fc (R&D systems. Cat. No. 7126-B7) (human, UniProt Q9H7M9 33-194)
- T1 construct: Bought antigen; also called human VISTA-Fc; VISTA-FC Human
- T1 sequence: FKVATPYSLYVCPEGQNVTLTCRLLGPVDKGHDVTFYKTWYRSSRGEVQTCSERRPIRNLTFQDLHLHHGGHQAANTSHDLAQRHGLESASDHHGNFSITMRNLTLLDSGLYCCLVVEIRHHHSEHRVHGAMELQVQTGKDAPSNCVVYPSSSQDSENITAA
- METHOD DESCRIPTION: Octet (BLI), antibody as ligand on biosensor, VISTA-Fc as analyte
pKd: −log10 of the molar value.
Reported values of pKd for individual entries

- BINDER: "Anti VISTA_V3_2 (IgG form) (antibody, V domains shown) VH: QMQLVQSGAEVKKPGSSVKVSCKASGGSSSNYAISWVRQAPGQGLEWMGGIIPIFGTTSYAQKFQGRVTITADGSMSTAYMELSSLRSEDTAVYYCAKGAIEPWPFYFDNWGQGTLVTVSS VL: QLVLTQPRSVSGSPGQSVTISCTGTNSDVGAYNYLSWYQQLPGRAPKVIIYDVNKRPSGVPDRFSGSRSGKTASLTISGLQAEDEADYYCAAWDDSLNDLVFGGGTKLTVLG"
  pKd: 7.89
- BINDER: "PMC-309.3.4SA (antibody, V domains shown, light chain SA; also called PMC-309.3.45A) VH: QVQLVQSGAEVKKPGSSVKVSCKASGGSSSNYAISWVRQAPGQGLEWMGGIIPIFGTTSYAQKFQGRVTITADKSTSTAYMELSSLRSEDTAVYYCAKGAIEPWPFYFDNWGQGTLVTVSS VL: QSALTQPRSVSGSPGQSVTISCTGTNSDVGAYNYLSWYQQLPGRAPKVIIYDVNKRPSGVPDRFSGSRSGKTASLTISGLQAEDEADYYCAAWDDNLYGLVFGGGTKLTVL"
  pKd: 9.22
- BINDER: "anti-VISTA antibody 1B8 (IgG form) (antibody, V domains shown, also called Anti VISTA 3.0(1B8); anti-VISTA mAb 1B8) VH: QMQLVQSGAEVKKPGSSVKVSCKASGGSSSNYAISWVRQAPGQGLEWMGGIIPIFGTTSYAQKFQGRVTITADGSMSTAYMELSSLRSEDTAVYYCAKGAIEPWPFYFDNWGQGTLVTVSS VL: QLVLTQPRSVSGSPGQSVTISCTGTNSDVGAYNYLSWYQQLPGRAPKVIIYDVNKRPSGVPDRFSGSRSGKTASLTISGLQAEDEADYYCAAWDDSLNGLVFGGGTKLTVLG"
  pKd: 7.87
